- Assay details: Hazardous Waste Screening Test (toxicity to aquatic life)
- Format: in vivo, Pimephakes promelas
- Study conditions: fathead minnow (Pimephakes promelas), in vivo, other: exposure in tank water containing the compound; fathead minnows; 96 hour exposure
- Method: Compound 1 was tested to determine whether or not the compound was hazardous or toxic to aquatic life. Ten fathead minnows (Pimephakes promelas) were placed each in a 8 liter tank containing vehicle control and a concentration of Compound 1 at 250 mg/L, 500 mg/L and 750 mg/L. After a 96 hour exposure period the number of viable minnows were counted. The survival rate of the minnows for the control and Compound 1 was 100%. […]
Experimental readout: LC50 at 96 h

Note LC50 at 96 h for the compound shown: CCC[n+]1ccc(/C=C2\Sc3ccccc3N2C)c2ccccc21 [Compound 1]
> 500 µg/mL
